Source: PubChem BioAssay AID1996

- Assay context: buffer; pH 7.4; 200.0 µM
Readout type: solubility kinetic (µg/mL)
Return type: number; implicit unit µg/mL.

Below, 10 molecules whose answers are already recorded.
Cc1cc2c(NCCc3ccccc3)ncnc2s1.Cl ... 8.7
Cc1csc(NC(=O)Cc2ccccc2Cl)n1 ... 34.4
O=C(Nc1cccnc1)OC1CCCC1 ... 29.5
Cc1cccc(N2CCN(C(=O)Cc3ccccc3[N+](=O)[O-])CC2)c1C ... 3.3
CCc1ccc(OCC(=O)N2CCc3ccccc32)cc1 ... 0.9
Cc1cc(NC(=O)c2cc(S(=O)(=O)N3CCCCC3)ccc2C)no1 ... 14.2
CCN(c1ccccc1)c1cc2ccccc2c(=O)[nH]1 ... 23.9
COc1ccccc1C(=O)NCC(=O)NCCc1ccc(Cl)cc1 ... 38.8
O=C(Nc1ccc2oc(-c3ccncc3)nc2c1)c1ccco1 ... 12.7
CC(C)(C)[C@]1(O)CCN2C[C@H]3c4ccccc4CCc4cccc(c43)[C@@H]2C1.Cl ... 59.3

GET /value?item= `CSC1=NCCN1C(=O)Cc1ccc(-c2ccccc2)cc1` &field=solubility kinetic returns 4.1

GET /value?item= `CSc1nsc(SCC(=O)Nc2ccccc2)n1` &field=solubility kinetic returns 32.4

GET /value?item= COc1ccc(OCC(=O)N2c3ccccc3CC2C)c([N+](=O)[O-])c1 (configuration not stated) &field=solubility kinetic returns 17.3

GET /value?item= Cc1onc(-c2ccccc2)c1C(=O)N1CCCC(C(F)(F)F)C1 (configuration not stated) &field=solubility kinetic returns 42.7

GET /value?item= `Cc1cccn2cc(CCNS(=O)(=O)c3cccs3)nc12` &field=solubility kinetic returns 45.6

* * *

Measured solubility kinetic accompanies every entry in the list below.
- Assay context: buffer; pH 7.4; 200.0 µM

Below, 3 molecules whose answers are already recorded.
COCC(C)NC(=S)NCCc1ccc(Cl)cc1Cl (centres undefined) ... > 48.2 µg/mL
Cc1ccccc1CN(c1ccc(C(=O)N2CCN(C)CC2)cc1)S(C)(=O)=O ... > 60.2 µg/mL
Cc1ccc(C(=O)c2nccn2C)cc1C ... > 32.1 µg/mL

GET /value?item= `COc1ccc(-n2c(C)nnc2SCC(=O)NC2CC2)cc1` &field=solubility kinetic returns > 47.8 µg/mL

* * *

- Assay context: buffer; pH 7.4; 200.0 µM
Readout type: solubility kinetic

Below, 5 compounds whose answers are already recorded.
COc1ccc(C(=O)Nc2ccc(C(=O)N3CCCCC3C)cc2)c(OC)c1OC (stereo unspecified) ... > 61.9 µg/mL
Cn1c(Cc2ccccc2)nnc1SCC(=O)Nc1ccccc1 ... > 50.8 µg/mL
COc1cccc(NC(=O)CN(C)C(=O)c2ccccn2)c1 ... > 44.9 µg/mL
O=C(NCCN1CCOCC1)C(=O)c1c[nH]c2ccccc12 ... > 45.2 µg/mL
Nc1nc(NCc2ccco2)nc(N2CCCC2)c1[N+](=O)[O-] ... > 45.6 µg/mL

GET /value?item= `O=C(O)c1ccc(N2C(=O)CSC2=S)cc1` &field=solubility kinetic returns > 38 µg/mL

* * *

- Assay context: buffer; pH 7.4; 200.0 µM
Measured solubility kinetic accompanies every entry in the list below.

Below, 2 compounds whose answers are already recorded.
CCn1ccnc1C(O)c1cccc2ccccc12 (stereo not drawn) ... > 37.8 µg/mL
Cc1ccccc1NCCC(=O)Nc1ccc(Cl)cc1 ... > 43.3 µg/mL

GET /value?item= CCOc1ccccc1NC1=NC2CS(=O)(=O)CC2S1 (stereo not drawn) &field=solubility kinetic returns > 46.9 µg/mL

* * *

- Assay context: buffer; pH 7.4; 200.0 µM
Readout type: solubility kinetic

Below, 3 molecules whose answers are already recorded.
COc1ccc(C(NC(=O)CC(C)C)c2c(O)ccc3ccccc23)cc1 (stereo not given) ... < 0.8 µg/mL
COc1ccc(N(C)S(=O)(=O)c2c(C)noc2C)c(OC)c1 ... > 49 µg/mL
O=S(=O)(Nc1cccnc1Cl)c1ccc(F)cc1 ... > 43 µg/mL

GET /value?item= `O=C1Nc2ccc([N+](=O)[O-])cc2C1=Nc1cccc(CO)c1` &field=solubility kinetic returns > 44.6 µg/mL

GET /value?item= `CCOC(=O)CNc1nc(Cl)nc(Nc2ccc(Cl)cc2)n1` &field=solubility kinetic returns < 0.1 µg/mL

* * *

- Assay context: buffer; pH 7.4; 200.0 µM
Measured solubility kinetic accompanies every entry in the list below.

Below, 5 compounds whose answers are already recorded.
CCN1CCN(c2nnc(-c3ccccc3)c3ccccc23)CC1 ... > 47.8 µg/mL
O=C(/C=C/c1ccco1)NCc1ccco1 ... > 32.6 µg/mL
O=S(=O)(Nc1ccc(Cl)cc1)c1cccc2nsnc12 ... > 48.9 µg/mL
O=C(NCCCCc1ccccc1)c1ccccc1Cl ... > 43.2 µg/mL
CC(=O)Nc1ccc(NC(=O)C2C3CCC(C3)C2C(=O)O)cc1 (stereo not drawn) ... > 47.5 µg/mL

GET /value?item= CCC(OC(=O)c1ccco1)C(=O)NCc1ccc(OC)cc1 (stereo not drawn) &field=solubility kinetic returns > 47.6 µg/mL

GET /value?item= `Cc1ccccc1CNC(=O)COc1ccccc1` &field=solubility kinetic returns > 38.3 µg/mL

GET /value?item= `Oc1ccc2ccccc2c1C=NC1CCCCC1` &field=solubility kinetic returns > 38 µg/mL

* * *

Measured solubility kinetic accompanies every entry in the list below.
- Assay context: buffer; pH 7.4; 200.0 µM

NC(=NC(=O)c1ccc(OC(F)(F)F)cc1)c1ccc(C(F)(F)F)cn1 ... < 0.3 µg/mL
O=C(O)CC1(CC(=O)NCc2ccc(Cl)cc2)CCCCC1 ... > 48.6 µg/mL
COc1ccc(C(=O)NC(=S)N2CCCC2)cc1 ... > 39.7 µg/mL
COc1ccc(S(=O)(=O)N2CCN(c3cnccn3)CC2)cc1OC ... > 54.7 µg/mL
O=C(NCCc1csc(-c2cccnc2)n1)c1cccc(Cl)c1 ... > 51.6 µg/mL

GET /value?item= `Cc1noc(C)c1S(=O)(=O)Nc1ccc(C#N)cc1` &field=solubility kinetic returns > 41.6 µg/mL

GET /value?item= `CC(=O)Nc1cccc(C(=O)/C=C/c2ccc[nH]2)c1` &field=solubility kinetic returns > 38.1 µg/mL

GET /value?item= `COc1ccc(Cn2c(=S)[nH]c3ccccc3c2=O)cc1` &field=solubility kinetic returns < 0.3 µg/mL

* * *

- Assay context: buffer; pH 7.4; 200.0 µM
Measured solubility kinetic accompanies every entry in the list below.

Below, 2 molecules whose answers are already recorded.
COc1ccc(CNc2nc(NC(C)=O)nn2-c2ccccc2)cc1 ... > 50.6 µg/mL
C=CCSc1nnc(NC(=O)C2=COCCO2)s1 ... > 42.8 µg/mL

Next, consider the following molecule.
GET /value?item= `CC(=O)Nc1ccc(S(=O)(=O)N(C#N)c2nc(C)cc(C)n2)cc1` &field=solubility kinetic returns > 51.8 µg/mL

* * *

- Assay context: buffer; pH 7.4; 200.0 µM
Readout type: solubility kinetic (µg/mL)
Return type: number; implicit unit µg/mL.

Below, 4 compounds whose answers are already recorded.
O=C(NCCc1c[nH]c2ccccc12)c1ccc2c(c1)OCO2 ... 44.5
O=C(CNC(=O)c1ccc(Cl)cc1)NC(CO)c1ccccc1 (stereo not drawn) ... 32.6
CC(OC(=O)c1ccc(S(=O)(=O)NCc2ccco2)cc1)C(=O)Nc1ccccc1 (stereo not drawn) ... 7.4
COC(=O)c1cc(S(=O)(=O)N2CCCCCC2)cn1C ... 38.8

GET /value?item= `O=S(=O)(c1ccc(-c2ccon2)s1)N1CCN(c2ccccn2)CC1` &field=solubility kinetic returns 1.1

GET /value?item= `Fc1cccc(F)c1-c1nc(-c2ccncc2)no1` &field=solubility kinetic returns 14.7

GET /value?item= `S=C1CSc2ccccc2N1` &field=solubility kinetic returns 25.1

GET /value?item= `CCc1ccc(-c2csc3nc[nH]c(=O)c23)cc1` &field=solubility kinetic returns 12

GET /value?item= CC(=O)Nc1ccc(C(=O)NC2CCSc3ccccc32)cc1 (stereo not drawn) &field=solubility kinetic returns 16.6

* * *

Measured solubility kinetic accompanies every entry in the list below.
- Assay context: buffer; pH 7.4; 200.0 µM

Below, 4 compounds whose answers are already recorded.
Cc1c(NCc2cccnc2)cccc1C(=O)O ... > 36.3 µg/mL
CCCC(=O)N=c1sc2c(OC)ccc(OC)c2n1C ... < 0.3 µg/mL
COc1ccc(NC(=S)Nc2ccccc2)c(OC)c1 ... > 43.3 µg/mL
Cl.N=c1ccn(Cc2ccc(F)cc2)cc1 ... > 35.8 µg/mL

GET /value?item= `O=S(=O)(c1ccc(Cl)c2ccccc12)N1CCCC1` &field=solubility kinetic returns < 0.6 µg/mL

GET /value?item= CCC(Oc1cccc(Cl)c1)C(=O)N1CCCN(C)CC1 (stereo unspecified) &field=solubility kinetic returns > 46.6 µg/mL

GET /value?item= `O=C1CN(S(=O)(=O)c2cccc(Br)c2)CCN1` &field=solubility kinetic returns > 47.9 µg/mL

GET /value?item= `Cc1ccc(C(=O)CSc2nc(O)cc(=O)[nH]2)cc1C` &field=solubility kinetic returns > 43.6 µg/mL

GET /value?item= `CC(C)[C@H](NC(=O)N1CCC(Cc2ccccc2)CC1)C(=O)O` &field=solubility kinetic returns > 47.8 µg/mL

GET /value?item= `COc1cc(OC)cc(C(=O)NCCCn2ccnc2)c1` &field=solubility kinetic returns > 43.4 µg/mL

GET /value?item= `Cl.Clc1ccc(CNCCCSc2ncccn2)cc1` &field=solubility kinetic returns > 49.5 µg/mL

GET /value?item= CC(=O)c1cccc(NC(=O)C2CC(=O)N(C3CCCC3)C2)c1 (stereo unspecified) &field=solubility kinetic returns > 47.2 µg/mL
